Study system: T1, VEGFR-1-Fc (UniProt P17948 27-338)
T1 construct: domain: first three Ig domains; expressed in Drosophila S2 cells, purified on Protein A sepharose; also called VEGFR-1-Fc fusion protein; not shown: Fc fragment from the Signal-pIgPlus vector
T1 sequence (P17948 27-338): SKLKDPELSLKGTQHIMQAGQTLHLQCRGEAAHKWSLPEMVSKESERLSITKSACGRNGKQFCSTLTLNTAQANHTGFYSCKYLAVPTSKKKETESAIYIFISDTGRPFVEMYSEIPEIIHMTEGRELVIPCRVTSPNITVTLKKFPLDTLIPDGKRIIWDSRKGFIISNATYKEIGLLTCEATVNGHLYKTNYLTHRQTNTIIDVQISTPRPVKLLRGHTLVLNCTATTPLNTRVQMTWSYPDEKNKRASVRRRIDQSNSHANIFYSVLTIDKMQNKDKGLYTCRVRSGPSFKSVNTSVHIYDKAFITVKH
Protocol summary: receptor-Fc IP

Binder | binding result
21-5 (ligand) AHYNTEILKSIDNEWRKTQCMPREVCIDVGKEYPDEIEYIFKPSCVPLMRCGGCCNDEGLECVPTEESNITMQIMRIKPHQGQHIGEMSFANHTSCRCMSKLD | no binding
12-5 (ligand) GQNHHEVVKFMDVYQRSYCHPIETLVDIFQEFGVATNTFFKPPCVSVYRCGGCCNDEGLECVPTEESNITMQIMRIKPHQGQHIGEMSFANHTSCRCMSKLDLVF | binds
63-16 (ligand) GQNHHEVVKFMDVYQRSYCHPREVCIDVGKEYPDEIEYIFKPPCVSVYRCGGCCNSEGLQCMNTSTSYLSKTLFEITVPLSQGPKPVTISFANHTSCRCMSKLD | no binding
34-3 (ligand) GQNHHEVVKSIDNEWRKTQCMPIETLVDIFQEFGVATNTFFKPSCVPLMRCGGCCNSEGLQCVPTEESNITMQIMRIKPHQGQHIGEMSFLQHNKCECRPKKD | no binding
14-5 (ligand) GQNHHEVVKFMDVYQRSYCHPIETLVDIFQEFGVATNTFFKPSCVPLMRCGGCCNDEGLECVPTEESNITMQIMRIKPHQGQHIGEMSFANHTSCRCMSKLD | binds
11-13 (ligand) GQNHHEVVKFMDVYQRSYCHPIETLVDIFQEYPDEIEYIFKPSCVPLMRCGGCCNDEGLECVPTEESNITMQIMRITVPLSQGPKPVTISFANHTSCRCMSKLD | binds
74-11 (ligand) GQNHHEVVKSIDNEWRKTQCMPREVCIDVGKEFGVATNTFFKPSCVPLMRCGGCCNSEGLQCVPTEESNITMQIMRITVPLSQGPKPVTISFLQHNKCECRPKKD | no binding
24-6 (ligand) AHYNTEILKSIDNEWRKTQCMPREVCIDVGKEFGVATNTFFKPSCVPLMRCGGCCNDEGLECMNTSTSYLSKTLFEIKPHQGQHIGEMSFANHTSCRCMSKLD | no binding
82-3 (ligand) AHYNTEILKFMDVYQRSYCHPIETLVDIFQEFGVATNTFFKPPCVSVYRCGGCCNSEGLQCVPTEESNITMQIMRIKPHQGQHIGEMSFLQHNKCECRPKKD | no binding
73-2 (ligand) GQNHHEVVKSIDNEWRKTQCMPREVCIDVGKEYPDEIEYIFKPPCVSVYRCGGCCNDEGLECMNTSTSYLSKTLFEIKPHQGQHIGEMSFLQHNKCECRPKKD | no binding
83-3 (ligand) AHYNTEILKFMDVYQRSYCHPIETLVDIFQEYPDEIEYIFKPPCVSVYRCGGCCNSEGLQCVPTEESNITMQIMRIKPHQGQHIGEMSFLQHNKCECRPKKD | binds
82-13 (ligand, clone entry) AHYNTEILKFMDVYQRSYCHPIETLVDIFQEFGVATNTFFKPPCVSVYRCGGCCNDEGLECVPTEESNITMQIMRITVPLSQGPKPVTISFANHTSCRCMSKLDL | binds
54-9 (ligand) AHYNTEILKSIDNEWRKTQCMPIETLVDIFQEFGVATNTFFKPSCVPLMRCGGCCNDEGLECVPTEESNITMQIMRITVPLSQGPKPVTISFLQHNKCECRPKKD | no binding
53-16 (ligand) AHYNTEILKSIDNEWRKTQCMPIETLVDIFQEYPDEIEYIFKPPCVSVYRCGGCCNSEGLQCMNTSTSYLSKTLFEITVPLSQGPKPVTISFANHTSCRCMSKLD | no binding
71-1 (ligand) GQNHHEVVKSIDNEWRKTQCMPREVCIDVGKEYPDEIEYIFKPSCVPLMRCGGCCNDEGLECVPTEESNITMQIMRIKPHQGQHIGEMSFLQHNKCECRPKKD | no binding
83-11 (ligand) AHYNTEILKFMDVYQRSYCHPIETLVDIFQEYPDEIEYIFKPPCVSVYRCGGCCNSEGLQCVPTEESNITMQIMRITVPLSQGPKPVTISFLQHNKCECRPKKD | binds
